TEST SYSTEM: Fatty acid synthase (Homo sapiens)
Sequence (P49327 whole entry, the tested form may be a part): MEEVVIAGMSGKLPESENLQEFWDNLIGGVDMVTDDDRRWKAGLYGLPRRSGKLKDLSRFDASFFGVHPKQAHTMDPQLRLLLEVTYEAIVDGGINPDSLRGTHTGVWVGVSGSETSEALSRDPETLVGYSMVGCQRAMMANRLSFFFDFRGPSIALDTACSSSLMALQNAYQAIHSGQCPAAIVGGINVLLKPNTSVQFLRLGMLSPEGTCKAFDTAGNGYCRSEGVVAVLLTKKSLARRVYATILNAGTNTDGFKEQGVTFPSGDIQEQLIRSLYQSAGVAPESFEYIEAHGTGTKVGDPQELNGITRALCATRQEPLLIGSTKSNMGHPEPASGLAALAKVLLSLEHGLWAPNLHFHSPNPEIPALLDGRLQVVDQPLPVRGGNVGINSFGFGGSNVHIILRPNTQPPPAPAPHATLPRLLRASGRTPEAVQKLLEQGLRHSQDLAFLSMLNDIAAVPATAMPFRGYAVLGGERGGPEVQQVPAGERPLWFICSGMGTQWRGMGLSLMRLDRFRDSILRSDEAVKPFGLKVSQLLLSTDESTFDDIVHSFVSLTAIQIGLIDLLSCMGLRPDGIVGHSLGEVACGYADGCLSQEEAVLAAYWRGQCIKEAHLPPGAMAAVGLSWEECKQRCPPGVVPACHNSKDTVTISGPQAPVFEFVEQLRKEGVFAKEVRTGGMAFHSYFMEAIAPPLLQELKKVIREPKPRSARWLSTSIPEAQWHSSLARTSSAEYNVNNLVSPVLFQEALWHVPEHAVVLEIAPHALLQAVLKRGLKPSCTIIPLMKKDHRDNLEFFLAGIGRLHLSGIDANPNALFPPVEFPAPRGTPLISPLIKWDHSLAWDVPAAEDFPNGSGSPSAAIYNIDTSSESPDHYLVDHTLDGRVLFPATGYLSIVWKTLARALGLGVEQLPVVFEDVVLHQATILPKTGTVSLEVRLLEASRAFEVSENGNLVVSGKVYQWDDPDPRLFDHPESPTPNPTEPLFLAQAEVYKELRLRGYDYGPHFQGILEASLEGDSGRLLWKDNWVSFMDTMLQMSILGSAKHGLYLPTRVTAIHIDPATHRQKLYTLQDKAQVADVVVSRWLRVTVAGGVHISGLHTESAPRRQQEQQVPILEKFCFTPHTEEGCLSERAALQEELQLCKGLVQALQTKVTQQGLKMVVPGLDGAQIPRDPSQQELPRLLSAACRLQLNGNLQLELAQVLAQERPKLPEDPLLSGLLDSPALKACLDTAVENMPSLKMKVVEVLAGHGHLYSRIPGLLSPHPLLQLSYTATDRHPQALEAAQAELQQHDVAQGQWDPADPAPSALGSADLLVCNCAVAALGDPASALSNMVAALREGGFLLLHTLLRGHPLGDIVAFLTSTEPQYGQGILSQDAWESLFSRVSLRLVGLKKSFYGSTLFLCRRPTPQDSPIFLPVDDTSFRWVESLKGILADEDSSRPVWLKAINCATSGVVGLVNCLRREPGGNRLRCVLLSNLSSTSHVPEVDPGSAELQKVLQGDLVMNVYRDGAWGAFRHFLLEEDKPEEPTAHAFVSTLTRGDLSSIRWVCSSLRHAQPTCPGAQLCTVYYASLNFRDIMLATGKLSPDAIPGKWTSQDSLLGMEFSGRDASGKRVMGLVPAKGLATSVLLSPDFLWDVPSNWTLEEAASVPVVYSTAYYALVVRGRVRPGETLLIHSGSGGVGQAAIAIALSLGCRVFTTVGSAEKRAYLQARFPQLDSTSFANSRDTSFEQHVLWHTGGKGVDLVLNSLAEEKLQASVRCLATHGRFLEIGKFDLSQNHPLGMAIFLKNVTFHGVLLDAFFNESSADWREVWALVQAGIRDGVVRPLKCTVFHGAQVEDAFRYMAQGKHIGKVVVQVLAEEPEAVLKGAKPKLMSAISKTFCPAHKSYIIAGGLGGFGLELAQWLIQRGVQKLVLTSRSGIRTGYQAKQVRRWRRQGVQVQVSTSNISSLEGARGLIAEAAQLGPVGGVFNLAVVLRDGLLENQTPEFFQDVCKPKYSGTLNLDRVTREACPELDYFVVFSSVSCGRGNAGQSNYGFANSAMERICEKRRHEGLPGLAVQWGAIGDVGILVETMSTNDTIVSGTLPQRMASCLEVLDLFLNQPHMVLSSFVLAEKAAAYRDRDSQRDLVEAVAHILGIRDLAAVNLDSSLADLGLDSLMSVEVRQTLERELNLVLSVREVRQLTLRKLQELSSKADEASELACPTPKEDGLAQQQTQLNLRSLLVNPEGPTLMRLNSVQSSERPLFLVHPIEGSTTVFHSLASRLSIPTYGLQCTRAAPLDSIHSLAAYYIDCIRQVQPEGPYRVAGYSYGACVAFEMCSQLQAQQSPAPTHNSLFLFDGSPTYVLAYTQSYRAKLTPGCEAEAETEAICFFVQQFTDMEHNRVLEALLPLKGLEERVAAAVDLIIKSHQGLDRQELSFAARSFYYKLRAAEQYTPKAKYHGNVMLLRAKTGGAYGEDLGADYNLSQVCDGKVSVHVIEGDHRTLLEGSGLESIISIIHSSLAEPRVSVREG
TEST: FAS thioesterase domain inhibitors, dose response, biochemical, kinetic fluorescence intensity (AID 624326);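 further: rate of fluorescence rise from hydrolysis of a fluorogenic O-methyl fluorescein ester substrate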
Format: functional
Calls of active or inactive are those of the source.
Answer with one of the outcomes given here: active, inactive

Input: Record request — test call for `CCCCOc1ccc(-c2c(C#N)c(N)nc(SCC(N)=O)c2C#N)cc1`
Output: active

Input: Record request — test call for `CC(=O)N(C1=C(Cl)C(=O)c2ccccc2C1=O)C1CCCCC1`
Output: active

Input: Record request — test call for `O=C(/C=C/c1cccc([N+](=O)[O-])c1)N1CCN(c2ccccc2F)CC1`
Output: active

Input: Record request — test call for `CCOC(=O)c1cc2c(=O)n3ccccc3nc2n(Cc2ccco2)/c1=N/C(=O)c1ccc(OC)cc1`
Output: inactive

Input: Record request — test call for `COc1ccc2cc3cc(C(=O)N4CCCCCC4)oc3nc2c1`
Output: active

Input: Record request — test call for `CN(C)S(=O)(=O)c1ccc(-c2csc(-c3cccnc3)n2)cc1`
Output: active

Input: Record request — test call for `CN1C(=O)/C(=C\c2cc(N=Nc3ccccc3)ccc2O)SC1=S`
Output: inactive

* * *

AC50, Cytochrome P450 2C9 (Homo sapiens, UniProt P11712), per-entry values.

Check out these entries, answers already filled in.
COMPOUND	RESULT
Cc1ccc(S(=O)(=O)N2CCC(C(=O)NCc3cccnc3)CC2)cc1	6.31 µM (inconclusive)
Cc1ccc(/C=N/NC(=O)CSc2nc3nc(C)cc(C)n3n2)cc1	22.4 µM (inconclusive)
CCN(CC(=O)Nc1ccc2c(c1)OCCO2)C(=O)c1cccc(S(=O)(=O)N2CCOCC2)c1	11.2 µM (inconclusive)
CN(Cc1cc(C(C)(C)C)cc(Br)c1O)Cc1cc(C(C)(C)C)cc(Br)c1O	3.98 µM (inconclusive)
C=CCn1c(S)nnc1C(C)NC(=O)c1ccccc1 (configuration not stated)	17.8 µM (inconclusive)

Below: the item to evaluate.
Input: Identify the measured AC50 of CCSc1nc(O)c2c3c(sc2n1)COC(C)(CC)C3 (configuration not stated) for Cytochrome P450 2C9 (Homo sapiens, UniProt P11712).
Output: 2.82 µM (inconclusive)

* * *

TEST SYSTEM: G-protein coupled receptor 55 (Homo sapiens)
Sequence (Q9Y2T6 whole entry): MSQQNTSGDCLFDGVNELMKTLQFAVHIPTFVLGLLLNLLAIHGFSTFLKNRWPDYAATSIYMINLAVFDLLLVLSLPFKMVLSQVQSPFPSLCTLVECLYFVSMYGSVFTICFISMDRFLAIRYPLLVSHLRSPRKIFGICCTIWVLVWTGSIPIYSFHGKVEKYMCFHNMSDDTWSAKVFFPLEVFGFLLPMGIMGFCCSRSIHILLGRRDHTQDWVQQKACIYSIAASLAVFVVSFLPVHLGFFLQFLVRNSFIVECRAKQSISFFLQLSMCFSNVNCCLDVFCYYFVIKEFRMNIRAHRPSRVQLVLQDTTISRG
TEST: GPR55 antagonists blocking LPI-driven arrestin recruitment, primary screen, imaging, U2OS, beta-arrestin-GFP, LPI agonist (AID 2013);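 further: antagonist potency measured as reduced agonist-driven arrestin aggregation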
Format: functional
Active and inactive are the calls of the source.
ENDPOINT NAME: IC50

Check out these entries, answers already filled in.
MOL	IC50
CCc1ccccc1/N=C1/S/C(=C/c2ccccc2OCC(=O)N2CCOCC2)C(=O)N1C	2710 nM (active)
Cc1ccccc1-c1cc(C(=O)Nc2sc(C)c(C)c2C(N)=O)c2ccccc2n1	2760 nM (active)
CC(=O)N(C1=C(Cl)C(=O)c2ccccc2C1=O)C1CCCCC1	4550 nM (active)

Below: the item to evaluate.
Input: Query: IC50; subject: `Cc1ccc(NC2=C/C(=N\S(=O)(=O)c3cccs3)c3ccccc3C2=O)c(C)c1`
Output: 1870 nM (active)

* * *

Reported EC50 values follow for various compounds
TEST SYSTEM: Heat shock factor protein 1 (Mus musculus)
Sequence (P38532 whole entry): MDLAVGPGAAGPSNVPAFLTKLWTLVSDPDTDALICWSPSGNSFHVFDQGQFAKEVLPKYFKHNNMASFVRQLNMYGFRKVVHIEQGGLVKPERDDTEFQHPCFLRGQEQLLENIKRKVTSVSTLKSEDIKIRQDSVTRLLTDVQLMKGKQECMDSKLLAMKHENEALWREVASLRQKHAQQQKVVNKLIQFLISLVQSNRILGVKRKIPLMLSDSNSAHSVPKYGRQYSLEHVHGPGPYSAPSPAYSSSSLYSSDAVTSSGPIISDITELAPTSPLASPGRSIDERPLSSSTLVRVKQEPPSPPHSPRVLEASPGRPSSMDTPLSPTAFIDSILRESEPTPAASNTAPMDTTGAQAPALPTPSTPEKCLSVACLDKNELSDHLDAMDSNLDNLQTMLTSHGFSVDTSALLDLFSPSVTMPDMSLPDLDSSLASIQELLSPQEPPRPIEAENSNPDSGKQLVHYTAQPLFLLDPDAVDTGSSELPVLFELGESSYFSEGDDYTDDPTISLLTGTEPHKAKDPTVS
TEST: inhibition of MG132-induced HSE-luciferase signal, confirmation, cell-based, NIH3T3, luminescence, dose retest (AID 2382);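 further: NIH3T3 fibroblasts with HSF1-driven luciferase reporter stressed by proteasome inhibitor MG132; luminescence from HSF1-driven luciferase expression after 8 hours of MG132 stress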
Type: functional
Calls of active or inactive are those of the source.

COMPOUND	EC50
Cc1nc(SCC(=O)Nc2nc3ccccc3s2)c(C#N)c(C)c1C	< 0.16 µM (active)
Cc1ccc(OCC(=O)Nc2ccccc2C(=O)N2CCCCC2)cc1	> 195 µM (not active)
CCCCCSc1nc(C)c(CC(=O)O)c(O)n1	> 195 µM (not active)
C/C(=N\NC(=O)CN1CCN(Cc2ccccc2)CC1)c1cccs1	> 195 µM (not active)
COc1ccc(OC)c(N(CC(=O)Nc2ccccc2)S(C)(=O)=O)c1	> 195 µM (not active)
COc1ccc(-c2csc(N(CCc3ccc(OC)c(OC)c3)C(=O)COc3ccccc3)n2)cc1	> 195 µM (not active)

Input: Query: EC50; subject: COc1ccc(OC)c(NC(=O)C2CCCN(S(=O)(=O)c3c(C)nn(C)c3C)C2)c1 (stereo not drawn)
Output: > 195 µM (not active)

Input: Query: EC50; subject: CCOC(=O)C1(Cc2ccccc2)CCCN(CCCn2cccn2)C1 (stereo not drawn)
Output: > 195 µM (not active)

* * *

TEST SYSTEM: Heat shock protein HSP 90-alpha (Homo sapiens, UniProt P07900)
Format: functional, organism-based
Calls of active or inactive are those of the source.
ENDPOINT NAME: AC50

MOLECULE	RESULT
CC1(c2nnc(Cc3ccccc3)o2)CC(c2ccccc2[N+](=O)[O-])=NO1 (stereo not given)	1.59 µM (active)
Cc1cc(C)cc(/N=C/c2ccc([N+](=O)[O-])s2)c1	4.15 µM (active)
COc1ccccc1-c1sc2ccccc2c1-c1ccc(O)cc1	5.22 µM (active)
O=[N+]([O-])c1cc2no[n+]([O-])c2cc1N1CCCCC1	1.62 µM (active)
CC(=O)N(C1=C(Cl)C(=O)c2ccccc2C1=O)C1CCCCC1	0.524 µM (active)
COc1ccc(C(=O)N/N=C/c2sc3ccccc3c2O)cc1	2.68 µM (active)
COc1ccc(-c2cc(C(=O)N3CCN(c4ccccc4F)CC3)c3ccccc3n2)c(OC)c1	5.77 µM (active)
COc1ccc2c(c1)[C@H]1[C@H](CO2)[C@H](c2ccccc2)[C@]2(C)C(=O)Nc3ccc(C)cc3C(=O)N12	6.38 µM (active)
O=C(NCCCCc1ccccc1)c1ccc(Br)cc1	3.65 µM (active)

Input: Query: AC50; subject: `Cc1c(OCC(=O)C(C)(C)C)ccc2c(-c3ccccc3)cc(=O)oc12`
Output: 7.83 µM (active)

* * *

Reported AC50 values follow for various compounds
TEST SYSTEM: FAD-linked sulfhydryl oxidase ALR (Homo sapiens, UniProt P55789)
Sequence (P55789 whole entry): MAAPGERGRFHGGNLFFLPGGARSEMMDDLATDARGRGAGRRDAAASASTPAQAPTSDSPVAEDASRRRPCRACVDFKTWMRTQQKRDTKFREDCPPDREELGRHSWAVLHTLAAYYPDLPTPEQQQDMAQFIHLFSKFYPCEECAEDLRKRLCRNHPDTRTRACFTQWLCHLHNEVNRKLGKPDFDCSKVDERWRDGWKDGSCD
TEST: inhibitors of human ALR sulfhydryl oxidase, dose response, biochemical, H2O2 detection, luminescence, cherry-pick (AID 493248)
Active and inactive are the calls of the source.

Input: Identify the measured AC50 of `CC(/C=C1\SC(=O)N(CCCC(=O)O)C1=O)=C\c1ccccc1` for FAD-linked sulfhydryl oxidase ALR (Homo sapiens, UniProt P55789).
Output: 4.84 µM (active)

Input: Identify the measured AC50 of `CCN(CC)c1ccc(N/C=C2/C(=O)NC(=O)N(c3ccccc3C)C2=O)cc1` for FAD-linked sulfhydryl oxidase ALR (Homo sapiens, UniProt P55789).
Output: 1.46 µM (active)

Input: Identify the measured AC50 of `CCCNC(=O)c1cc2c3ccccc3n(C)c2s1` for FAD-linked sulfhydryl oxidase ALR (Homo sapiens, UniProt P55789).
Output: 0.137 µM (active)

Input: Identify the measured AC50 of `Cc1c(C)c(C)c(C(=O)CCc2cccc(NC(=O)CCC(=O)O)c2)c(C)c1C` for FAD-linked sulfhydryl oxidase ALR (Homo sapiens, UniProt P55789).
Output: 1.72 µM (active)

Input: Identify the measured AC50 of Cc1ccc(N2C(=O)CC(NNC(=O)c3cccc(S(=O)(=O)N4CCCC4)c3)C2=O)cc1 (configuration not stated) for FAD-linked sulfhydryl oxidase ALR (Homo sapiens, UniProt P55789).
Output: 9.56 µM (active)

Input: Identify the measured AC50 of `C=CCn1c(SCc2ccc(C(=O)O)cc2)nc2sc(C)c(C)c2c1=O` for FAD-linked sulfhydryl oxidase ALR (Homo sapiens, UniProt P55789).
Output: 4.74 µM (active)

Input: Identify the measured AC50 of `O=S(=O)(Nc1ccccc1O)c1ccc2[nH]c(O)nc2c1` for FAD-linked sulfhydryl oxidase ALR (Homo sapiens, UniProt P55789).
Output: 2.1 µM (active)

* * *

Tested on: BJ
TEST: cytotoxicity toward BJ-TERT-LT-ST fibroblasts, dose response, cell-based, RAS-independent, luminescence (AID 1935);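 further: BJ fibroblasts immortalized with TERT plus LT and ST oncogenes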
Format: functional
MEASUREMENT SETUP: Homo sapiens
Calls of active or inactive are those of the source.
Reported EC50 values follow for various compounds

MOL	ENDPOINT NAME	RESULT
Cc1ccc(NC2=C/C(=N\S(=O)(=O)c3cccs3)c3ccccc3C2=O)c(C)c1	EC50	4.42 µM (inconclusive)
C/C(=N\NC(=O)c1cccc2ccccc12)c1ccccn1	EC50	3.87 µM (active)
COc1ccc(/C=C/C(=O)c2ccc([N+](=O)[O-])o2)cc1OC	EC50	1.15 µM (inconclusive)

Below: the item to evaluate.
Input: Query: EC50; subject: `O=C(CCl)Nc1cccc(S(=O)(=O)N2CCCCCC2)c1`
Output: 10.7 µM (active)

* * *

TEST: cytotoxicity in HPDE-C7 cells, cell-based, fluorescence, HTS (AID 430)
Format: functional
MEASUREMENT SETUP: Homo sapiens
Calls of active or inactive are those of the source.
ENDPOINT NAME: EC50

Input: Query: EC50; subject: Cc1ccc(C2C3CSCC=C3C(C#N)=C(N)C2(C#N)C#N)cc1 (centres undefined)
Output: 17.4 µM (active)

Input: Query: EC50; subject: Cc1nc2sccn2c(=O)c1CCN1CCC(=C(c2ccc(F)cc2)c2ccc(F)cc2)CC1 [RITANSERIN]
Output: > 20 µM (not active)

Input: Query: EC50; subject: `CCCOC(=O)c1ccc(Oc2c(C)n[nH]c2-c2ccc(OCC)cc2O)cc1`
Output: 11.9 µM (active)

Input: Query: EC50; subject: `O=C1C=C(NCc2ccc(Cl)c(Cl)c2)CC1`
Output: > 20 µM (not active)
